Tested on: Mus musculus
Test: Ratio of median survival time of treated mice (T) to that of median survival time of controls (C) in mice infected with p388 cells (in vivo) at a dose of 1.56 mg/kg
Format: functional
Value Kind: T/C

In the examples that follow, each entry is paired with its recorded T/C.
CN[C@@H]1CN(c2ccc3c(=O)c(C(=O)O)cn(-c4nccs4)c3n2)C[C@H]1OC.Cl ... 125%
COc1cccc2c1C(=O)c1c(O)c3c(c(O)c1C2=O)C[C@@](O)(C(=O)CO)C[C@@H]3O[C@H]1C[C@H](N)[C@H](O)[C@H](C)O1 ... 228%
CN[C@H]1CN(c2ccc3c(=O)c(C(=O)O)cn(-c4nccs4)c3n2)C[C@@H]1OC.Cl ... 188%

As a next step, examine the compound that follows.
Fill in the blank: the reported T/C of COc1cc([C@@H]2c3cc4c(cc3[C@@H](O[C@@H]3O[C@@H]5CO[C@@H](C)O[C@H]5[C@H](O)[C@H]3O)[C@H]3COC(=O)[C@H]23)OCO4)cc(OC)c1O [ETOPOSIDE] is ____.
150%
